src = patent US20180362628A1

Parameter kon: see the listing below.
- ASSAY_SYSTEM: T1, full CSP protein (analyte of Example 12) (Plasmodium falciparum (isolate 3D7), UniProt Q7K740 19-374)
- T1 construct: not shown: C-terminal tags
- T1 sequence (Q7K740 19-374 limits assumed): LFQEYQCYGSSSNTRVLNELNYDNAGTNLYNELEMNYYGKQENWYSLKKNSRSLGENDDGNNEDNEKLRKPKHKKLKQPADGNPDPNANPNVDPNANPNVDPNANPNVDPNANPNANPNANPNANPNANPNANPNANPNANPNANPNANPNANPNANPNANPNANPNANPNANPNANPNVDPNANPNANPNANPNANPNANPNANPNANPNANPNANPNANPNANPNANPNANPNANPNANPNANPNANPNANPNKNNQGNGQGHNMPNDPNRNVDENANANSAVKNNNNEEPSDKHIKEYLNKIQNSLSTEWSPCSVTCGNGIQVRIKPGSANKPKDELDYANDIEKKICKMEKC
- METHOD_SUMMARY: SPR, IgG1 from supernatant on anti-human IgG surface, CSP as analyte, 25 C, 1:1 fit
State just the number; it will be interpreted in M⁻¹ s⁻¹.

BINDER | kon, M⁻¹ s⁻¹
CL-141784 (antibody, V domains shown, human IgG1, HEK (Expi293F) culture supernatant) VH: QVQLVQSGAEVKNPGASLKVSCKASGYTFTNYAMHWVRQAPGQRLEWMGWINAGNGYTKYSQTFQGRVTITRDTYASTAYMELSSLRSEDTAVYYCVRDEYYESGSSNYYYYGMDVWGQGTTVTVSS VL: QSALTQPASVSGSPGQSITISCTGTSSDVGSYNHVSWYQQHPGKAPKLMIYDVSTRPSGVSNRFSGSKSGNTASLTISGLQAEDEADYYCCSYAGSSTWVFGGGTKMTVL | 541000

Could you tell me which kon is on file for CL-141799 (antibody, V domains shown, human IgG1, HEK (Expi293F) culture supernatant) VH: QVQLVQSGAEVKKPGASVKVSCKASGFTFTDYAMHWVRQAPGQRLEWMGWINAGNGYTKYSQKFQDRLTITRDTFASTVYMELSSLRSEDTTVYYCARDGFCPSNTCSGYYGMDVWGQGTTVTVSS VL: QSALTQPASVSGSPGQSITISCTGTSSDVGAYKYVSWYQQHPGKAPKLMIYDVNTRPSGVSTRFSASKSGNTASLTVSGLQAEDEAVYYCSSYAGSSTWVFGGGTKLTVL ?
486000

Could you tell me which kon is on file for CL-141772 (antibody, V domains shown, human IgG1, HEK (Expi293F) culture supernatant) VH: QVQLVQSGAEVKKPGASVKVSCKASGFIFINYAMQWVRQAPGQRLEWMGWINAGNGYTKYSQKFQGRVTITRDISANTVYMELSSLRSEDTAVYYCARDGFCSTTTCSDHYGMDVWGQGTTVTVSS VL: QSALTQPASVSGSPGQSITISCTGTSSDVGGYNYVSWYQQHPGKAPKLMIYDVSKRPSGVSDRFSGSKSGNTASLTISGLQTEDEADYYCCSYAGSSTWVFGGGTKLTVL ?
338000

Could you tell me which kon is on file for CL-141789 (antibody, V domains shown, human IgG1, HEK (Expi293F) culture supernatant) VH: QVQLVQSGAEVKKPGASVRVSCKTSGFTFTSYAIQWVRQAPGQGLEWMGWINAGDGHTKYSQKFQDRVVITRDTSATTVYMDLSSLRSEDTAVYYCTRDGFCTTTTCSDHYGMDVWGQGTTVTVSS VL: QSALTQPASVSGSPGQSITISCTGTSSDVGSYNYVSWYQQHPGKVPKFMISDVSKRPSGISDRFSGSKSGNTASLTISGLQAEDEADYYCCSYAGGSTWVFGGGTKLTVL ?
293000

Could you tell me which kon is on file for CL-141781 (antibody, V domains shown, human IgG1, HEK (Expi293F) culture supernatant) VH: QVQLVQSGAEVKKPGASVKVSCRASGYTFSNYAMHWVRQAPGQRLEWMGWINAGNGYTKYSQKFQDRVTITRDTSATTAYMELSSLRSEDTAMYYCSRDSFYDILTGPVYHYYGMDVWGQGTTVTVSS VL: QSALTQPDSVSGSPGQSITISCTGTSNDVGVYNHVSWYQQHPGKAPKLMIYDVSKRPSGVSNRFSGSKSGNTASLTISGLQAEDEADYYCCSYVGNSAWVFGGGTKLTVL ?
221000
